Provenance of the data: PubChem BioAssay

Target: Focal adhesion kinase 1 (Homo sapiens) (UniProt Q05397)
Sequence (Q05397 whole entry, looked up): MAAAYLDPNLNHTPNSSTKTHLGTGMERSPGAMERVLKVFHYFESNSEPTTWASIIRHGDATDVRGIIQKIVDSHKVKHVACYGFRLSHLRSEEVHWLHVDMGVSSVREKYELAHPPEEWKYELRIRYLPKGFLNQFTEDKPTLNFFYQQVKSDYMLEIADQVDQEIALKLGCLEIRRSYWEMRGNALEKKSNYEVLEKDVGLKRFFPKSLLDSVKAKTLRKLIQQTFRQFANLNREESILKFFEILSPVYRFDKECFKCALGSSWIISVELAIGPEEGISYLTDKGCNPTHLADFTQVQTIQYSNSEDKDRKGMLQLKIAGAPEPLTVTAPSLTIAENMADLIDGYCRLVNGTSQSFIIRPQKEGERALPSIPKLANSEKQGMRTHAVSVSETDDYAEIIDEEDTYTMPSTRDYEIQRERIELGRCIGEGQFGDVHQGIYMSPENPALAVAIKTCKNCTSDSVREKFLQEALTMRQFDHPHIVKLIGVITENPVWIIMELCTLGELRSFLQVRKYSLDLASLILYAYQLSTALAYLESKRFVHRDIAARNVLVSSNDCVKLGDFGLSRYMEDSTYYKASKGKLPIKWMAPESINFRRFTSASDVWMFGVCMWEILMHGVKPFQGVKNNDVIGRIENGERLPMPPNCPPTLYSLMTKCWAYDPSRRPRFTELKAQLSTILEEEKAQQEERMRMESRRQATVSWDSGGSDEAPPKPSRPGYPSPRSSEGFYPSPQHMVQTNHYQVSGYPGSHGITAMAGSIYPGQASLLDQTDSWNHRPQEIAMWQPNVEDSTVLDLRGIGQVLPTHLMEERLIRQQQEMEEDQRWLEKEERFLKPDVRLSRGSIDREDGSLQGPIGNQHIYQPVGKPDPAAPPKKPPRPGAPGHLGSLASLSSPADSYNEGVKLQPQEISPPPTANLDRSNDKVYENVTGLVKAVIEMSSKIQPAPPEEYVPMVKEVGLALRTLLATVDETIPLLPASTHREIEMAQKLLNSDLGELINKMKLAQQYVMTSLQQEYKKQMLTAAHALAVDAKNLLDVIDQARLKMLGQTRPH
Test: small-molecule microarray binders of FAK, primary screen, biochemical, 635/667 nm fluorescence, BSA, DTT (AID 1130);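 note: composite of spot emission at 667 nm and signal to noise over triplicate slides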
Settings: PTK2 binding, 635 nm fluorescence, higher = more signal
property_measured: composite z-score
Answer as a number with no unit attached.

Example entries begin here.
[
  {
    "compound_structure_string": "Cc1ccc(S[C@]2(C(=O)NC(C)C)CC(=O)N(C3Cc4ccccc4C3)[C@@H]2c2ccc(CO)cc2)cc1",
    "assay_system": "Focal adhesion kinase 1 (Homo sapiens) (UniProt Q05397)",
    "observed_result": 0.447
  },
  {
    "compound_structure_string": "C=CCOC(=O)[C@@H]1[C@H]2C(=O)O[C@H](c3ccccc3)[C@H](c3ccccc3)N2[C@H](c2ccc(OCCOC(=O)[C@H]3C[C@H]4C(=O)N[C@@H](CCCCNC(C)=O)C(=O)N4[C@H]3c3ccc(O)cc3)cc2)[C@@]12C(=O)Nc1ccc(I)cc12",
    "assay_system": "Focal adhesion kinase 1 (Homo sapiens) (UniProt Q05397)",
    "observed_result": -0.145
  }
]

Quick one: composite z-score of "CCCC/C=C/[C@H]([C@@H](O)Cc1ccccc1)N(CC#Cc1ccccc1)Cc1ccccc1Br" ? -0.219

Next compound: "C=C(CCCC)C(=O)CC[C@@H](OC(=O)c1cccnc1)c1cccc(OCCO)c1" 0.533

Next compound: "O=C1O[C@@H](c2ccccc2)[C@@H](c2ccccc2)N2[C@@H](c3ccc(O)cc3)[C@]3(C(=O)Nc4ccccc43)[C@@H](C(=O)N3CCN(c4ncccn4)CC3)[C@H]12" 0.225

Next compound: "C/C(=N\O)C(=O)NCCCCCNC(=O)OCc1ccccc1" 0.317

Next compound: "[N-]=[N+]=NCc1ccccc1C[C@@]1(C(=O)O)N=C(c2ccc(OCCCO)cc2)O[C@@H]1c1ccccc1N=[N+]=[N-]" 0.581
